Where do the numbers come from? From PubChem BioAssay (NCI).

# Tested on: LOX IMVI melanoma
# PROTOCOL: NCI-60 one-dose screen, 48 h (100 = growth as untreated, 0 = no growth, -100 = all killed)
# STATED CONDITIONS: 10 µM unless noted
About 83,000 compounds went through this panel and 20% of them were active in at least one assay; those are over-represented in the sample as a whole.
Catalogue of growth values

COMPOUND: S=C(Nc1ccc(C2=NCCN2)cc1)Nc1ccc(C2=NCCN2)cc1
growth / %: 96.7
//
COMPOUND: COC(=O)[C@]1(C(C)C)N[C@H](c2cn(-c3ccccc3)nc2-c2ccccc2)[C@@H]2C(=O)N(c3ccc(Cl)cc3)C(=O)[C@@H]21
growth / %: 92.1
//
COMPOUND: NC(=O)N/N=C/c1ccc(Br)o1
growth / %: 94.2
//
COMPOUND: CCC(c1ccccc1)c1noc(CCN(CC)CC)n1 (stereo unspecified)
growth / %: 100
//
COMPOUND: COc1cc(/C=C/C(=O)Nc2ccc3c(c2)/C(=C\c2cccn2C)C(=O)N3)cc(OC)c1OC
growth / %: 41.4
//
COMPOUND: Clc1ccc([C@@H]2C[C@@H]3Cc4cc(Br)c5ccccc5c4N2O3)c(Cl)c1
growth / %: 72.1
//
COMPOUND: O=C1NCN(c2ccccc2)C12CCN(CCCC(c1ccc(F)cc1)c1ccc(F)cc1)CC2
growth / %: 61.9
//
COMPOUND: Cc1ccc([N+](=O)[O-])cc1NC(=O)Nc1cccc(F)c1
growth / %: 82.4
//
COMPOUND: O=C1CCCN1C1CCN(Cc2cc3ccccc3[nH]c2=O)c2ccccc21 (stereo unspecified)
growth / %: 90.4
//
COMPOUND: O=C(COC(=O)[C@H](C[Se][Se]C[C@H](NC(=O)c1ccc(Br)cc1F)C(=O)OCC(=O)c1ccc(F)cc1)NC(=O)c1ccc(Br)cc1F)c1ccc(F)cc1
growth / %: -83
//
COMPOUND: O=C(Nc1ccncc1)C(=O)c1cn(S(=O)(=O)c2cccc(F)c2)c2ccccc12
growth / %: 45.2
//
COMPOUND: COc1cc(/C=C/C(=O)Nc2cccnc2Nc2cc(OC)c(OC)c(OC)c2)cc(OC)c1OC
growth / %: 101
//
COMPOUND: O=C(Nc1ccc(Cl)cc1)Nc1ccc(Nc2nncc3ccccc23)cc1
growth / %: 33.6
//
COMPOUND: N#Cc1c(N)[nH]c(S)c1C#N
growth / %: 102
//
COMPOUND: C=Cc1nn2c(CCC(=O)c3nc4ccccc4[nH]3)nnc2s1
growth / %: 95
//
COMPOUND: CNc1ccc(CSc2ccc(Cl)cc2)cc1
growth / %: 103
//
COMPOUND: CCOC(=O)C1=NN(c2ccc(Cl)cc2)C2C3N(c4ccc(Cl)cc4)N=C(C(=O)OCC)N3c3ccccc3N12 (stereo unspecified)
growth / %: 113
//
COMPOUND: CC[N+](C)(CC)CCCC(C)Nc1ccnc2cc(Cl)ccc12 (stereo unspecified)
growth / %: 99.7
//
COMPOUND: O=NC1CC=CCC1c1ccccc1 (stereo unspecified)
growth / %: 104
//
COMPOUND: CC/C=C\C=C/C(=O)N/C=C/CC1Cc2cccc(O)c2C(=O)O1 (stereo unspecified)
growth / %: 75
//
COMPOUND: CCCCSc1cc(C)nc(N)n1
growth / %: 92

----------
# Tested on: SF-539 CNS
# PROTOCOL: NCI-60 one-dose screen, 48 h (100 = growth as untreated, 0 = no growth, -100 = all killed)
# STATED CONDITIONS: 10 µM unless noted
# Description: Cells are grown in 96 well plates and exposed to the test compound for 48 hours. Compounds are tested at a single concentration, which is 10^-5 M for most compounds. The reported endpoint is percent growth (GI% or GIPRCNT), where numbers from 0 - 100% represent growth inhibition, and numbers from -100% - 0 represent cell death. For example, a value of 40 represents 60% growth inhibition. A value of 0 means no net growth occurred over the course of the experiment. […]
This is part of a sample that, as a whole, favours compounds with a hit. Of some 83,000 tested, about 20% had one in any assay.
Response field label takes YES when growth is strictly below 50% and NO in all other cases.

COMPOUND: COC(=O)CC1=C(C)/C(=C/c2[nH]c(-c3ccc[nH]3)cc2OC)N=C1C
LABEL CLASS: YES
--
COMPOUND: C[C@@H]1CC[C@H]2[C@@H](C)C(O)O[C@@H]3O[C@]4(C)CC[C@@H]1[C@]32OO4 (stereo partly specified)
LABEL CLASS: YES
--
COMPOUND: CCCCCCCC/C=C/CCCCCCCC1=NC(C)(C)CN1CC(C)O (stereo unspecified)
LABEL CLASS: YES
--
COMPOUND: Clc1ncn[nH]1
LABEL CLASS: NO
--
COMPOUND: CCCCn1c(Cc2ccc(Cl)cc2)nc2cc(OC)c(OC)cc2c1=O
LABEL CLASS: NO

----------
# Test system: MCF7 breast
# PROTOCOL: NCI-60 one-dose screen, 48 h (100 = growth as untreated, 0 = no growth, -100 = all killed)
# STATED CONDITIONS: 10 µM unless noted
This is part of a sample that, as a whole, favours compounds with a hit. Of some 83,000 tested, about 20% had one in any assay.
Catalogue of growth values

COMPOUND: COc1cc(Oc2cc(-c3cccnc3)ccc2NC(=O)Nc2ccc(F)cc2F)cc(OC)c1OC
UNIT TAG: %
growth: 94.2
//
COMPOUND: O=C1OCC/C1=C\OCCCO/C=C1\CCOC1=O
UNIT TAG: %
growth: 104
//
COMPOUND: CC1=C(C(=O)Nc2ccccc2)C(c2ccc3c(c2)OCCO3)NC(=O)N1 (stereo unspecified)
UNIT TAG: %
growth: 94.7
//
COMPOUND: CCCC[N+](CCCC)=c1ccc2nc3c(C)cc(N(CC)CC)cc3sc-2c1
UNIT TAG: %
growth: -50
//
COMPOUND: N#CCCN(CCO)c1ccccc1
UNIT TAG: %
growth: 93.6
//
COMPOUND: O=C(O)c1ccccc1C(=O)OC1CCCC2CCCC21 (stereo unspecified)
UNIT TAG: %
growth: 94.6
//
COMPOUND: CCc1[nH]nc(-c2ccc(OC)cc2)c1-c1ccccc1OCCN(CC)CC
UNIT TAG: %
growth: 93.2
//
COMPOUND: O=C(CSCC(=O)N/N=C/c1ccccc1O)N/N=C\c1ccccc1O
UNIT TAG: %
growth: 19.5
//
COMPOUND: N#Cc1c(N)[nH]c(S)c1C#N
UNIT TAG: %
growth: 92.1
//
COMPOUND: C=Cc1nn2c(CCC(=O)c3nc4ccccc4[nH]3)nnc2s1
UNIT TAG: %
growth: 93.8
//
COMPOUND: O=C1Cc2cc(CCN3CCN(CCOCCO)CC3)c(Cl)cc2N1Cc1ccc(-c2ccccc2-c2nn[nH]n2)cc1
UNIT TAG: %
growth: 87.1

----------
# Tested on: RPMI-8226 leukemia
# PROTOCOL: NCI-60 one-dose screen, 48 h
# STATED CONDITIONS: 10 µM unless noted
Compounds without any hit were thinned out: in the full panel of roughly 83,000, 20% have a hit. Calls of active or inactive are those of the source. Rule for the calls: active = growth percent below 10; inactive = the rest.
Labels: active, inactive

COMPOUND: CCN1C[C@@H](C)n2c(c(O)c3c(=O)n(Cc4ccc(F)c(Cl)c4)nc(C(=O)NC)c32)C1=O
LABEL CLASS: inactive

COMPOUND: C[C@]12CC[C@@H]3c4ccc(O)c([N+](=O)[O-])c4CC[C@H]3[C@@H]1CC[C@@H]2NS(=O)(=O)c1cccc(Br)c1
LABEL CLASS: inactive

COMPOUND: CC[N+](CC)(CCOCCOCC[N+](CC)(CC)Cc1ccc([N+](=O)[O-])cc1)Cc1ccc([N+](=O)[O-])cc1
LABEL CLASS: inactive

COMPOUND: COc1cc(-c2cc(C(=O)Nc3nc4ccccc4s3)nc3cc(-c4ccccc4)nn23)cc(OC)c1OC
LABEL CLASS: inactive

COMPOUND: Nc1ncc(-c2cnn(C3CCNCC3)c2)cc1-c1nc2cc(Cl)ccc2o1
LABEL CLASS: active

COMPOUND: Cc1cc2c(C#N)n3c(c2cc1C)C(=O)C(c1ccccc1)Oc1ccccc1-3 (stereo not drawn)
LABEL CLASS: inactive

COMPOUND: O=C1C(=O)c2ccc(Br)cc2-c2cc(Br)ccc21
LABEL CLASS: inactive

COMPOUND: S=C1SCN(Cc2ccccc2)CN1Cc1ccco1
LABEL CLASS: inactive

COMPOUND: CC(=O)O[C@H]1C(=O)[C@@]2(C)C([C@H](OC(=O)c3ccccc3)[C@]3(O)C[C@H](OC(=O)[C@H](O)[C@@H](NC(=O)c4ccccc4)c4ccccc4)C(C)=C1C3(C)C)[C@]1(OC(C)=O)CO[C@@H]1C[C@@H]2O (stereo partly drawn)
LABEL CLASS: active

COMPOUND: Cc1cc(C(C)(C)C)cc(C)c1CC1=NCCN1
LABEL CLASS: inactive

COMPOUND: CC(CCC(=O)O)(NC(=O)c1ccc([N+](=O)[O-])cc1)C(=O)O (stereo not drawn)
LABEL CLASS: inactive

COMPOUND: Oc1[nH]c2ccc(Cl)cc2c1/C=c1/ccc2c(c1)N=C(c1ccc(C(F)(F)F)cc1)N=2
LABEL CLASS: inactive

COMPOUND: O=C(CSc1nnc(Nc2ccccc2)s1)NCCc1ccc(F)cc1
LABEL CLASS: inactive

COMPOUND: COc1cccc2c1C(=O)c1c(O)c3c(c(O)c1C2=O)C[C@@](O)(/C(C)=N/NC(=O)c1cccc([N+](=O)[O-])c1)C[C@@H]3OC1CC(N)C(O)C(C)O1 (stereo partly drawn)
LABEL CLASS: active

COMPOUND: O=C1C(Cl)=C(N=Nc2c(Cl)c(O)c3ccccc3c2O)C(=O)c2ccccc21
LABEL CLASS: inactive

COMPOUND: NNC(=O)C1CC2c3ccccc3C1c1ccccc12 (stereo not drawn)
LABEL CLASS: inactive

COMPOUND: CCCCCCCCCCCCCCCCCc1nccn1CCO
LABEL CLASS: inactive

COMPOUND: COc1ccc(-c2cnnn2-c2cc(OC)c3c(c2)OCO3)cc1
LABEL CLASS: active
